Tested on: Staphylococcus aureus Rosenbach (ATCC 25923)
Test: Antibacterial microbroth dilution MIC/MBC against S. aureus
Type: cell-based
Settings: Staphylococcus aureus, ATCC25923; S. aureus Rosenbach ATCC 25923; 37 °C, 24 h, OD600; mean ± SD, triplicates; read-out: MIC90 [(μM) mean ± SD]
Value kind: MIC90

INSERT INTO measurements (compound, value_measured) VALUES
  ('CNC(=O)C[C@@H]1NC(=O)c2csc(n2)-c2ccc(-c3nc(C(=O)N[C@@H](CO)C(=O)N4CCC[C@H]4C(N)=O)cs3)nc2-c2csc(n2)-c2csc(n2)[C@H]([C@@H](O)c2ccccc2)NC(=O)CNC(=O)c2nc(sc2COC)[C@H](C(C)C)NC(=O)c2nc1sc2C', '7.07 µM'),
  ('CNC(=O)CC1NC(=O)c2csc(n2)-c2ccc(-c3nc(C4=NC(C(=O)N5CCCC5C(=O)O)CO4)cs3)nc2-c2csc(n2)-c2csc(n2)C(C(O)c2ccccc2)NC(=O)CNC(=O)c2csc(n2)C(C(C)C)NC(=O)c2csc1n2 (stereo not shown)', '> 70 µM'),
  ('CNC(=O)C[C@@H]1NC(=O)c2csc(n2)-c2ccc(-c3nc(C(=O)O)cs3)nc2-c2csc(n2)-c2csc(n2)[C@H]([C@@H](O)c2ccccc2)NC(=O)CNC(=O)c2nc(sc2COC)[C@H](C(C)C)NC(=O)c2nc1sc2C', '10.3 µM'),
  ('CNC(=O)C[C@@H]1NC(=O)c2csc(n2)-c2ccc(-c3nc(C(=O)N[C@@H](CO)C(=O)N4CCC[C@H]4C(N)=O)cs3)nc2-c2csc(n2)-c2csc(n2)[C@H]([C@@H](O)c2ccccc2)NC(=O)CNC(=O)c2csc(n2)[C@H](C(C)C)NC(=O)c2nc1sc2C', '> 70 µM');
